# Test system: Hepatitis C virus
# METHOD NOTES: Antiviral activity against Hepatitis C virus genotype 1a infected in human HuH7 cells after 72 hrs by FRET assay
# Format: functional, organism-based, Hepacivirus hominis
# SETTINGS: subtype 1a, Huh-7, 72 h
pEC50: −log10 of the molar value.
MEASUREMENT NAME: pEC50

1. CC(C)(C)OC(=O)N1CCC[C@H]1c1ncc(-c2ccc(-c3ccc(-c4cnc([C@@H]5CCCN5C(=O)OC(C)(C)C)[nH]4)cc3)cc2)[nH]1 6.05
2. CN(C)[C@@H](C(=O)N1CCC[C@H]1C(=O)Nc1ccc(-c2cnc(-c3ccc(NC(=O)[C@@H]4CCCN4C(=O)[C@@H](c4ccccc4)N(C)C)cc3)o2)cc1)c1ccccc1 6.25
3. O=C(Cc1ccccc1)N1CCC[C@H]1c1ncc(-c2ccc(-c3ccc(-c4cnc([C@@H]5CCCN5C(=O)Cc5ccccc5)[nH]4)cc3)cc2)[nH]1 6.55

I = CN(C)[C@@H](C(=O)N1CCC[C@H]1C(=O)Nc1cccc(-c2cnc(-c3cccc(NC(=O)[C@@H]4CCCN4C(=O)[C@@H](c4ccccc4)N(C)C)c3)o2)c1)c1ccccc1
II = COC(=O)N[C@@H](C(=O)N1CCC[C@H]1c1ncc(-c2ccc(-c3ccc(-c4cnc([C@@H]5CCCN5C(=O)OC(C)(C)C)[nH]4)cc3)cc2)[nH]1)c1ccccc1
III = CN(C)[C@@H](C(=O)N1CCC[C@H]1C(=O)Nc1ccc(-c2cnc(-c3cccc(NC(=O)[C@@H]4CCCN4C(=O)[C@@H](c4ccccc4)N(C)C)c3)o2)cc1)c1ccccc1
Descending sort on pEC50 required. Write the labels, ordered according to the request.
III, II, I
